Tested on: NCI-H3122
Experiment description: relative viability (nuclei count vs DMSO), 5 days (fraction); higher = more cells survive
Stated conditions: first compound 0.000632 µM
Measured parameter: relative viability
Answer using only a numeral; do not append any unit.

Summary for this molecule, CC(=O)O[C@@]12CO[C@@H]1C[C@H](O)[C@@]1(C)C(=O)[C@H](O)C3=C(C)[C@@H](OC(=O)[C@H](O)[C@@H](NC(=O)OC(C)(C)C)c4ccccc4)C[C@@](O)([C@@H](OC(=O)c4ccccc4)[C@H]21)C3(C)C [Docetaxel] + COc1cccc2cc(-c3nc([C@H]4CC[C@H](C(=O)O)CC4)n4ncnc(N)c34)[nH]c12 [OSI-027] (partner 0.5 µM) : relative viability is 0.861

Lab book: relative viability of CC(=O)O[C@@]12CO[C@@H]1C[C@H](O)[C@@]1(C)C(=O)[C@H](O)C3=C(C)[C@@H](OC(=O)[C@H](O)[C@@H](NC(=O)OC(C)(C)C)c4ccccc4)C[C@@](O)([C@@H](OC(=O)c4ccccc4)[C@H]21)C3(C)C [Docetaxel] + CC(=O)Nc1cccc(-n2c(=O)n(C3CC3)c(=O)c3c(Nc4ccc(I)cc4F)n(C)c(=O)c(C)c32)c1 [Trametinib] (partner 0.02 µM) noted as 0.215

The reported value for CC(=O)O[C@@]12CO[C@@H]1C[C@H](O)[C@@]1(C)C(=O)[C@H](O)C3=C(C)[C@@H](OC(=O)[C@H](O)[C@@H](NC(=O)OC(C)(C)C)c4ccccc4)C[C@@](O)([C@@H](OC(=O)c4ccccc4)[C@H]21)C3(C)C [Docetaxel] + O=C(CCCCCCC(=O)Nc1ccccc1)NO [Vorinostat] (partner 1 µM) in terms of relative viability is 0.95
